Assayed Target: T1, recombinant human Tau monomer, 2N4R isoform (amino acids 2-441) (human, UniProt P10636-8 2-441)
T1 construct: range 2-441; N-terminal His-tag removed with TEV protease; also called monomeric Tau
T1 sequence (P10636 other isoform, or with tags, fused parts or gaps limits assumed): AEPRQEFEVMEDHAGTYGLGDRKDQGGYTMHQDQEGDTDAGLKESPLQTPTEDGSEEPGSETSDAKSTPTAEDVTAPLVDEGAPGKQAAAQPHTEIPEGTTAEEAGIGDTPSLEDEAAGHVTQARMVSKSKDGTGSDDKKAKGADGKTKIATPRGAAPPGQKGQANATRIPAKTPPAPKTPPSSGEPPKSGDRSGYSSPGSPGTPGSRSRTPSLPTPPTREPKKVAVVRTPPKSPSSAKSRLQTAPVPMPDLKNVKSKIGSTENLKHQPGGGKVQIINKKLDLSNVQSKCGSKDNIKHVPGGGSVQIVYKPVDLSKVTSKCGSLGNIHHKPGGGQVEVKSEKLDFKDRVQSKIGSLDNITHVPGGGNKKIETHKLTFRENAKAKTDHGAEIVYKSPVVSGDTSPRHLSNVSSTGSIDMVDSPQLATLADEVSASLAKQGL
Test Details: SPR; Normalized Rmax post-stress (2 weeks 40 C) / pre-stress
# key: entry, value: Stability Index

{"columns": ["Binder", "Stability Index"],
 "data": [
  ["hu37D3-H9.v5.9 (antibody, V domains shown) VH: EVQLVESGGGLVQPGGSLRLSCAASGLIFRSYGMSWVRQAPGKGLEWVATINSGGTYTYYPDSVKGRFTISRDNSKNTLYLQMNSLRAEDTAVYYCANSYSGAMDYWGQGTLVTVSS VL: EDVLTQTPLSLPVTPGQPASISCRSSQSIVHSNGETYFEWYLQKPGQSPQLLIYKVSNRFSGVPDRFSGSGSGTDFTLKISRVEAEDVGVYYCFQGSLVPWTFGQGTKVEIK", "95%"],
  ["hu37D3-H9.v30.9 (antibody, V domains shown) VH: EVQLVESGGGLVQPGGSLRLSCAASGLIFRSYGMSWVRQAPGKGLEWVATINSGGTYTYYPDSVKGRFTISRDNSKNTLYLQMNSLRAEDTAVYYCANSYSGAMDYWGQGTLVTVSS VL: DDVLTQTPLSLPVTPGQPASISCRSSQSIVHSHGNTYFEWYLQKPGQSPQLLIYKVSNRFSGVPDRFSGSGSGTDFTLKISRVEAEDVGVYYCFQGSLVPWTFGQGTKVEIK", "63%"],
  ["hu37D3.v28.55 (antibody, V domains shown) VH: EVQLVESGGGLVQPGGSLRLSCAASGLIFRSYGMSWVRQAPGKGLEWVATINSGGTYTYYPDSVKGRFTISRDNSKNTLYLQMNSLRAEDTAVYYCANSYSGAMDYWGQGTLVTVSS VL: DDVLTQTPLSLPVTPGQPASISCRSSQSIVHSNQNTYFEWYLQKPGQSPQLLIYKVSNRFSGVPDRFSGSGSGTDFTLKISRVEAEDVGVYYCFQGSLVPWTFGQGTKVEIK", "82%"]
]}
